System: Mycobacterium avium
Experiment: Antimycobacterial activity against Mycobacterium avium My 330/80 after 14 days by micromethod
Assay type: functional
Details: My 330/80, 336 h
Recorded measurements of MIC, one per entry

Worked examples follow.
smiles.entry: NNC(=O)c1ccncc1
recorded.metric: MIC
experimental.result: > 250 µM
--
smiles.entry: O=C(Nc1ccc(C(F)(F)F)cc1)c1cc(Cl)c(Cl)cc1O
recorded.metric: MIC
experimental.result: 62.5 µM

Form: compound = O=C(Nc1ccc(C(F)(F)F)cc1)c1cc(Br)c(Cl)cc1O ; MIC = 32 µM

Form: compound = O=C(Nc1ccc(Cl)c(Cl)c1)c1cc(Br)c(Br)cc1O ; MIC = 62.5 µM

Form: compound = O=C(Nc1ccc(C(F)(F)F)cc1)c1cc(Br)c(Br)cc1O ; MIC = 32 µM

----------
Tested on: Mycobacterium avium
Test: Antimycobacterial activity against Mycobacterium avium My 330/80 after 21 days by micromethod
Assay type: functional
Conditions: My 330/80, 504 h
Label key: true means MIC under 30 µM; false means MIC of 30 µM or more.

Prompt: Record O=C(Nc1ccc(Cl)c(Cl)c1)c1ccc(Br)cc1O : is its MIC strictly below 30 µM?
Completion: true

----------
Tested on: Mycobacterium tuberculosis
Experiment: Antimycobacterial activity against Mycobacterium tuberculosis H37Rv My 331/88 after 21 days by micromethod
Type: functional
Settings: H37Rv My 331/88, 504 h
recorded.metric: MIC (µM)
Write it as a number; the unit µM goes unstated.

smiles.entry: O=C(Nc1cc(C(F)(F)F)cc(C(F)(F)F)c1)c1cc(Cl)c(Cl)cc1O
recorded.metric: MIC
experimental.result: 2

smiles.entry: O=C(Nc1ccc(Cl)c(Cl)c1)c1cc(Cl)c(Br)cc1O
recorded.metric: MIC
experimental.result: 4

smiles.entry: O=C(Nc1ccc(Cl)c(Cl)c1)c1cc(Cl)c(Cl)cc1O
recorded.metric: MIC
experimental.result: 2

Form: compound = O=C(Nc1ccc(Br)cc1)c1cc(Br)c(Cl)cc1O ; MIC = 4

----------
Recorded measurements of MIC, one per entry
Tested on: Mycobacterium kansasii
Test: Antimycobacterial activity against Mycobacterium kansasii isolate 6509/96 after 7 days by micromethod
Format: functional
Conditions: isolate 6509/96, 168 h
Write it as a number; the unit µM goes unstated.

Worked examples follow.
compound: O=C(Nc1ccc(Br)cc1)c1cc(Br)ccc1O [DIBROMSALAN]
MIC [µM]: 8
//
compound: O=C(Nc1ccc(Cl)c(Cl)c1)c1cc(Br)c(Br)cc1O
MIC [µM]: 8
//
compound: O=C(Nc1cc(C(F)(F)F)cc(C(F)(F)F)c1)c1cc(Cl)c(Cl)cc1O
MIC [µM]: 8
//
compound: O=C(Nc1ccc(Cl)c(Cl)c1)c1cc(Cl)c(Cl)cc1O
MIC [µM]: 8
//
compound: O=C(Nc1ccc(C(F)(F)F)cc1)c1ccc(Cl)cc1O
MIC [µM]: 2

Form: compound = O=C(Nc1ccc(Br)cc1)c1cc(Cl)ccc1O ; MIC = 4

Form: compound = O=C(Nc1ccc(Br)cc1)c1cc(Cl)c(Br)cc1O ; MIC = 4

Form: compound = O=C(Nc1ccc(Br)cc1)c1cc(Br)c(Br)cc1O ; MIC = 8

----------
Tested on: Mycobacterium avium
Assay: Antimycobacterial activity against Mycobacterium avium My 330/80 after 14 days by micromethod
Type: functional
Conditions: My 330/80, 336 h
recorded.metric: MIC (µM)
Write it as a number; the unit µM goes unstated.

Worked examples follow.
smiles.entry: O=C(Nc1ccc(Cl)c(Cl)c1)c1ccc(Br)cc1O
unit.descriptor: µM
experimental.result: 16

smiles.entry: O=C(Nc1ccc(C(F)(F)F)cc1)c1cc(Cl)c(Br)cc1O
unit.descriptor: µM
experimental.result: 32

smiles.entry: O=C(Nc1ccc(Br)cc1)c1cc(Cl)c(Br)cc1O
unit.descriptor: µM
experimental.result: 32

smiles.entry: O=C(Nc1cc(C(F)(F)F)cc(C(F)(F)F)c1)c1cc(Br)c(Br)cc1O
unit.descriptor: µM
experimental.result: 16

Here O=C(Nc1cc(C(F)(F)F)cc(C(F)(F)F)c1)c1cc(Cl)ccc1O was tested on Mycobacterium avium, and its MIC came to 32

Here O=C(Nc1ccc(Br)cc1)c1cc(Cl)c(Cl)cc1O was tested on Mycobacterium avium, and its MIC came to 32

Here O=C(Nc1ccc(Br)cc1)c1cc(Br)c(Cl)cc1O was tested on Mycobacterium avium, and its MIC came to 32

Here O=C(Nc1ccc(Cl)c(Cl)c1)c1cc(Br)ccc1O was tested on Mycobacterium avium, and its MIC came to 8

Here O=C(Nc1cc(C(F)(F)F)cc(C(F)(F)F)c1)c1cc(Br)ccc1O was tested on Mycobacterium avium, and its MIC came to 16

Here O=C(Nc1ccc(Cl)c(Cl)c1)c1cc(Br)c(Cl)cc1O was tested on Mycobacterium avium, and its MIC came to 125

Here O=C(Nc1ccc(Cl)c(Cl)c1)c1cc(Cl)c(Br)cc1O was tested on Mycobacterium avium, and its MIC came to 125

Here O=C(Nc1cc(C(F)(F)F)cc(C(F)(F)F)c1)c1ccc(Cl)cc1O was tested on Mycobacterium avium, and its MIC came to 16

Here O=C(Nc1ccc(Cl)c(Cl)c1)c1cc(Cl)c(Cl)cc1O was tested on Mycobacterium avium, and its MIC came to 62.5
